The reported numbers originate from the supplement of paper PMC6555819.

# Test system: PXR homodimer (NR concentration 270 nM)
# protocol-description: PBM binding z-score (relative to random genomic background probes); higher = stronger binding; sequences stand for … in GC…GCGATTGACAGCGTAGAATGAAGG
experimental-readout: PBM binding z-score
Would you mind answering with just the numeric figure?

A selection of reference data follows.
Lookup: Field: PBM binding z-score (PXR homodimer (NR concentration 270 nM)). Entry: AACTCTAGGTAACCAAGTTCAGTGAATGCCGAAC
Found: 1.29

Lookup: Field: PBM binding z-score (PXR homodimer (NR concentration 270 nM)). Entry: CCGACTGAGGCAAGGTTACCATAACGCACAGCCA
Found: -0.0704

Lookup: Field: PBM binding z-score (PXR homodimer (NR concentration 270 nM)). Entry: TCTAGTTGATCACGGAGGTCACACACGACGGGTA
Found: 1.44

Lookup: Field: PBM binding z-score (PXR homodimer (NR concentration 270 nM)). Entry: GCTGCTAGGTCAGATTGGTCAGCTAACGGGTACG
Found: -0.223

Lookup: Field: PBM binding z-score (PXR homodimer (NR concentration 270 nM)). Entry: ACAGACAGGTTAGTGAAGGTAACTCAGCTGGACG
Found: -0.25

Lookup: Field: PBM binding z-score (PXR homodimer (NR concentration 270 nM)). Entry: ATCGAAAGGTCGAAGGTTAGTATACCCACCCGAA
Found: 0.404

Others:
Lookup: Field: PBM binding z-score (PXR homodimer (NR concentration 270 nM)). Entry: CCTAGCAGGCCAGGGTCACTTAAGCATTTCGCTT
Found: -0.248

Lookup: Field: PBM binding z-score (PXR homodimer (NR concentration 270 nM)). Entry: TCTGCTAGGTCAGTAGGTCAGCTAACGAGCTGCC
Found: -0.386

Lookup: Field: PBM binding z-score (PXR homodimer (NR concentration 270 nM)). Entry: ATCGAAAGGTCGAGGTGAGTTTAGAGAAAGGGAA
Found: 1.12

Lookup: Field: PBM binding z-score (PXR homodimer (NR concentration 270 nM)). Entry: AGAATGAGGTTAAGATCAGTGAAACAGAATACAT
Found: -0.347

Lookup: Field: PBM binding z-score (PXR homodimer (NR concentration 270 nM)). Entry: TCTGCTAGGTCAGTTGATCAGCTAACGAGCTGCC
Found: -0.78

Lookup: Field: PBM binding z-score (PXR homodimer (NR concentration 270 nM)). Entry: GGAACGAGGACAAGTTGATAGCAGAGTTTGATGG
Found: 0.0308

---

# Test system: PPARg:RXRa (NR concentration 180 nM, RXRa partner concentration 90 nM)
# protocol-description: PBM binding z-score (relative to random genomic background probes); higher = stronger binding; sequences stand for … in GC…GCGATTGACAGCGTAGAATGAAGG
Recorded measurements of PBM binding z-score, one per entry
Would you mind answering with just the numeric figure?

Lookup: Could you share which PBM binding z-score value was measured for TCTCGGAGGACACGAAGGACAGAGCTTTCCAGAG ?
Found: 0.271

Lookup: Could you share which PBM binding z-score value was measured for TTACCAAGGTGAGCTGAGGTGGTTGATCCAACTC ?
Found: -0.0433

Others:
Lookup: Could you share which PBM binding z-score value was measured for CATACAGGGTCAGCTAGGCCAGAGAAGGGACGGC ?
Found: 3.38

Lookup: Could you share which PBM binding z-score value was measured for CGTCAAAGTTCAACTAAGGTAACGCAAAGCACGC ?
Found: 5.24

Lookup: Could you share which PBM binding z-score value was measured for AGTCAAAGTTCATCTAGCTAACGTAAGATATGCT ?
Found: 6.14

Lookup: Could you share which PBM binding z-score value was measured for TGTCAAAGTTCGAAGGTAACGTAAGTATCCACAC ?
Found: 4.57
